- Test system: P388 leukemia ip, CD2F1 mice, survival T/C
- Assay Method Text: NCI In Vivo Anticancer Drug Screen. Data for tumor model P388 Leukemia (intraperitoneal) in CD2F1 (CDF1) mice
- Conditions: endpoint: median survival time; dose: 400.0 mg/kg/injection; schedule: Q04DX003 (ip); vehicle: saline with Tween-80; higher = longer survival
Inconclusive results and toxic doses are left out.
Property Name: T/C

Compound	T/C
Cc1cc2ncn(C(=O)Nc3ccccc3)c2cc1C	90 % of control

Dear colleague, I am looking for the recorded T/C of the following compound: CN(C)CCNc1ccc2cc3ccc(N=Nc4ccc(N(C)C)cc4)cc3nc2c1
103 % of control

Dear colleague, I am looking for the recorded T/C of the following compound: Cc1cc2ncnn2cn1
93 % of control

Dear colleague, I am looking for the recorded T/C of the following compound: Clc1ccc(CNc2ncnc3[nH]ncc23)cc1Cl
95 % of control

Dear colleague, I am looking for the recorded T/C of the following compound: CC(C)N(C(=O)COc1ccc(Cl)cc1Cl)c1ccccc1
100 % of control

Dear colleague, I am looking for the recorded T/C of the following compound: CC(C)(C)N1C(=O)[N+](C)(CCCCCC[N+]2(C)N=C([O-])N(C(C)(C)C)C2=O)N=C1[O-] (configuration not stated)
108 % of control

Dear colleague, I am looking for the recorded T/C of the following compound: Cc1cccc(-c2cc(Cl)c3cc(S(=O)(=O)F)ccc3n2)c1
109 % of control

Dear colleague, I am looking for the recorded T/C of the following compound: Nc1nc(SC2CCCCC2)c2[nH]cnc2n1
108 % of control

Dear colleague, I am looking for the recorded T/C of the following compound: C/C=C/COCC
108 % of control

Dear colleague, I am looking for the recorded T/C of the following compound: CCN(C(=O)COc1ccc(Cl)cc1Cl)c1ccccc1C
100 % of control

Dear colleague, I am looking for the recorded T/C of the following compound: CC(C)(C)N1C(=O)[N+]2(CCCCC2)N=C1[O-]
86 % of control

Dear colleague, I am looking for the recorded T/C of the following compound: C=C(C)CSc1ncnc2nc[nH]c12
100 % of control

----------
- Test system: P388 leukemia ip, CD2F1 mice, survival T/C
- Assay Method Text: NCI In Vivo Anticancer Drug Screen. Data for tumor model P388 Leukemia (intraperitoneal) in CD2F1 (CDF1) mice
- Conditions: endpoint: median survival time; dose: 400.0 mg/kg/injection; schedule: Q01DX009 (ip); vehicle: saline with Tween-80; higher = longer survival
- Description: The antitumor activity of compounds was measured in mice bearing transplantable tumors. Survival or tumor size were measured and the results are expressed as the measurement made in the treated group (T) divided by the measurement made in the vehicle treated control group (C). The tumor model used in this assay is P388 Leukemia (intraperitoneal) in CD2F1 (CDF1) mice
Inconclusive results and toxic doses are left out.
Listed below: T/C values for each entry.

Below, 5 compounds whose answers are already recorded.
Compound	Reported Value
O=C1NN(c2ccccc2)C(=O)/C1=C\c1ccccc1O	111 % of control
Nc1cc2nc3ccccc3sc-2cc1=O	89 % of control
NN1C(=O)c2ccccc2C1=O	99 % of control
O=C(CC(O)(C(F)(F)F)C(F)(F)F)c1cc(CC(=O)C(O)(C(F)(F)F)C(F)(F)F)cc(CC(=O)C(O)(C(F)(F)F)C(F)(F)F)c1	115 % of control
CSc1nc(N)nc2c1ncn2C1OC(CO)C(O)C1O (configuration not stated)	100 % of control

Dear colleague, I am looking for the recorded T/C of the following compound: C[Si](C)(CCCOCC1CO1)O[Si](C)(C)CCCOCC1CO1 (configuration not stated)
114 % of control

Dear colleague, I am looking for the recorded T/C of the following compound: COc1ccc(/C=C/c2ccc3ccccc3n2)c(OC)c1
100 % of control
